Assay System: T1, human IL-2Rβ (human, UniProt P14784 27-240, limits assumed)
T1 construct: recombinant protein, coated or immobilised; also called hu IL-2R; IL-2R beta
T1 sequence: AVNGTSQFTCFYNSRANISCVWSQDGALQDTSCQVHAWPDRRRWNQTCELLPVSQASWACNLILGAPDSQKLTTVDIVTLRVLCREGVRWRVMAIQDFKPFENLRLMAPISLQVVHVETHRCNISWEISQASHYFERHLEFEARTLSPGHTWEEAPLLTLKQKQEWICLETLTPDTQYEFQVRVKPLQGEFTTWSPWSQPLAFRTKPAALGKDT
Procedure Text: P.E. ELISA, coated protein
Form field: P.E. binding ELISA OD (one value per entry).
Observation Type: P.E. binding ELISA OD

[[record]]
binder = "FJ1427_P035MP02A08 (VHH, soluble VHH in periplasmic extract; also called clone nr) VHH: EVQLVESGGGLVQAGGSLRLSCTVSGDVFVRYTMAWFRQAPGKEREFVATVTDSGRTTEYVDSVKGRFTVSRDNAKNTVYLQMNNLKPEDTAVYYCAANTDYFRIRSLDANTWGQGTQVTVSS"
recorded_measurement = "1.79 OD450 nm"

[[record]]
binder = "FJ1427_P035MP02E07 (VHH, soluble VHH in periplasmic extract; also called clone nr) VHH: QVQLVESGGGLVQAGGSLGLACALSGDVFVRYTMAWFRQAPGKEREFVASVTDSGRTTDYVASVQGRFTVSRDNNKNTVYLQMNSLKPEDTAVYYCAANTDYFQIRSLDRNTWGQGTQVTVSS"
recorded_measurement = "0.541 OD450 nm"

[[record]]
binder = "FJ1427_P035MP02F01 (VHH, soluble VHH in periplasmic extract; also called clone nr) VHH: EVQLVESGGGLVQTGGSLRLSCAVSGSRFISDVMGWYRQVPGKQRELVADMADGGSAKYADSVKGRFSILRDSVKNTVYLQMSSLKPEDTGIYYCKAGLWIAGRHSDYWGQGTQVTVSS"
recorded_measurement = "0.469 OD450 nm"

